Target: T1, Processed stabilized hMPV PreF trimer (115BV) (human metapneumovirus, strain B2)
T1 construct: also called Processed hMPV PreF trimer; processed PreF
Assay: BLI, mAb on anti-human Fc sensor
Listed here: items and their measured Octet binding response.
Reply with just the number (in nm).

binder: M2B05 (antibody, V domains shown, IgG) VH: QVQLQQWGAGLLRPSETLSLTCTVYGGSFGGYHWSWIRQSPGKGLEWIGEIDHGGNTNFNPSLKSRVTISVDRSKKQFSLKLTSVTAADTAVYYCARGFGVVINNWFDPWGQGTLVTVSS VL: DIQMTQSPSSLSASVGDRVTITCRASQTINSYLNWYQQKPGKAPTLLIYTVSSLQSGVPSRFSGSGSGTVFSLTISSLQPEDFATYYCQQSYNSPYTFGQGTKLEIK
units_symbol: nm
experimental_value: 0.542

Could you now consider this next binder?
Fill in the blank: the reported Octet binding response of M3B04 (antibody, V domains shown, IgG) VH: QVQLQESGPGLVKPSETVSLTCTVSGGSISSNNWWSWVRQSPGKGLEWIGEIYHSGSTNFNPSLKSRVTISVDKSKNHFSLKLGSLTAADTAVYYCARRPNDYGDYSYYYYYYMDVWGKGTTVTVSS VL: EIVLTQSPATLSLSPGESATLSCRASQSINRNLAWYQQKPGQAPRLLIYDASNRATGIPARFSGSGSGTDFTLTISSLEPEDFAVYYCQQRSHWVTFGQGTRLEIK is ____. 0.0297

From: patent US20240327502A1
